Test system: P. berghei-ANKA-GFP-LucCON liver stage parasites in HepG2-A16-CD81EGFP cells
experimental protocol: P. berghei liver stage Pb-Luc assay, Method 1 (UCSD, 1536-well)
Type: cell-based, Plasmodium berghei
test settings: Plasmodium berghei, 48 h, 3 uM (compounds provided at 10 mM); average of 2 wells on a 1536 well plate; column 8; read-out: Pb-Luc (P. berghei liver stage), % of control, higher concentration, first repeat
Param label: returns Yes when activity at 3 µM < 70%, returns No otherwise, including exact equality.

INSERT INTO results (molecule, experimental_system, group) VALUES
  ('O=C(Nc1nc(-c2ccccn2)cs1)c1cccc(S(=O)(=O)N2CCOCC2)c1 [MLS002161290-01]', 'P. berghei-ANKA-GFP-LucCON liver stage parasites in HepG2-A16-CD81EGFP cells', 'Yes');

Ask: Does the reported activity at 3 µM of the following molecule sit strictly below 70%? COc1cccc(NC(=O)CN(C)C(=O)c2ccc(-c3ccc(Cl)cc3)o2)c1 [MLS001142098-01]
Reply: No

Ask: In the record for COc1ccc(S(=O)(=O)N2CCC3(CC2)OCCN3S(=O)(=O)c2c(C)cc(C)cc2C)cc1 [MLS001237293-01] , is activity at 3 µM less than 70%?
Reply: No

Ask: Take the molecule COc1cc2ccccc2cc1C(=O)N1CC(C)CC(C)C1 (centres unmarked) [MLS001129394-01] and say whether its activity at 3 µM is less than 70%.
Reply: Yes

====

Kindly supply the reported viability at 48 h, 1 µM values for the records listed here.
experimental protocol: in vitro
test settings: human, HepG2-A16-CD81EGFP cells, uninfected
Give bare numbers, in %.

INSERT INTO measurements (molecule, quantity_kind, test_value) VALUES
  ('Cc1ccc(-c2nc(CN3CCCCC3)cc(CN3CCCCC3)c2O)cc1', 'viability at 48 h, 1 µM', 101),
  ('CC(C)Nc1ccc(Nc2ccnc3cc4ccccc4cc23)cc1', 'viability at 48 h, 1 µM', 114),
  ('CCn1c(/C=C/c2cc(Br)ccc2O)nc2ccccc2c1=O', 'viability at 48 h, 1 µM', 104),
  ('CCOC(=O)c1c(CNc2ccncc2)n(C)c2cc(Br)c(O)cc12', 'viability at 48 h, 1 µM', 90),
  ('Cc1cc(Nc2ccccc2)nc2cc(O)ccc12', 'viability at 48 h, 1 µM', 100),
  ('COc1ccccc1NC(=O)N1CCOc2ccc(CN3CCc4ccccc4C3)cc2C1', 'viability at 48 h, 1 µM', 98),
  ('CCOC(=O)c1nnn(-c2nonc2-n2cccc2)c1CN1CCCCC1', 'viability at 48 h, 1 µM', 102),
  ('O=C(C[n+]1cc(-c2ccccc2)n2c1CCC2)c1cccs1', 'viability at 48 h, 1 µM', 94),
  ('O=C(c1ccc([N+](=O)[O-])o1)N1CCN(c2nc3c(F)cc(F)cc3s2)CC1', 'viability at 48 h, 1 µM', 103),
  ('COc1ccc(-c2noc(-c3cccn3CC(=O)Nc3ccccc3F)n2)cc1F', 'viability at 48 h, 1 µM', 98.5);

For each of the molecules below, note its viability at 48 h, 1 µM.
1. Cc1cc(C)cc(C(=O)Nc2ccc3c(N4CCCC4)ncnc3c2)c1
2. COCC(C)n1c(C)cc(C(=O)CSc2nnc(Nc3ccccc3F)s2)c1C (stereo not drawn)
3. COc1ccc(CNCC(O)(c2ccc(Cl)cc2)c2ccc(Cl)cc2)cc1

Reply:
1. 89
2. 95
3. 98

Batch lookup, viability at 48 h, 1 µM per entry.
1. COc1ccccc1CNCC(O)(c1ccc(Cl)cc1)c1ccc(Cl)cc1
2. Cc1cccc(CSc2nn3c(=O)c(C)nnc3s2)c1

Reply:
[95, 115]
